Tested on: Shigella flexneri
test_description: Antibacterial activity against Shigella flexneri MTCC 1457 assessed as growth inhibition by agar streak dilution method
Assay type: functional
# maps each entry to its MIC

>  <smiles_data>
Cc1ccc(NC(=O)CSc2nnc(-c3cc4ccccc4oc3=O)o2)cc1

>  <MIC>
> 100 µg/mL

$$$$
>  <smiles_data>
Cc1ccc2nc(NC(=O)CSc3nnc(-c4cc5ccccc5oc4=O)o3)sc2c1

>  <MIC>
> 100 µg/mL

$$$$

We now examine a further compound.
[in] Specify the recorded MIC for O=C(CSc1nnc(-c2cc3ccccc3oc2=O)o1)Nc1ccccc1 , system: Shigella flexneri.
[out] > 100 µg/mL

---

Tested on: Candida albicans
test_description: Antifungal activity against Candida albicans MTCC 183 assessed as growth inhibition by agar streak dilution method
Assay type: functional
Some compounds, each annotated with its measured MIC.
Could you give me the number in µg/mL? Just the number is fine.

>  <smiles_data>
Cc1ccc2nc(NC(=O)CSc3nnc(-c4cc5ccccc5oc4=O)o3)sc2c1

>  <property_name>
MIC

>  <experimental_value>
100

$$$$
>  <smiles_data>
O=C(CSc1nnc(-c2cc3ccccc3oc2=O)o1)Nc1nc2ccc([N+](=O)[O-])cc2s1

>  <property_name>
MIC

>  <experimental_value>
50

$$$$
>  <smiles_data>
O=C(CSc1nnc(-c2cc3ccccc3oc2=O)o1)Nc1ccc(F)cc1

>  <property_name>
MIC

>  <experimental_value>
25

$$$$
>  <smiles_data>
N#Cc1ccc(NC(=O)CSc2nnc(-c3cc4ccccc4oc3=O)o2)cc1

>  <property_name>
MIC

>  <experimental_value>
50

$$$$

Now for a further compound.
[in] Report MIC under test system Candida albicans for O=C(CSc1nnc(-c2cc3ccccc3oc2=O)o1)Nc1nc2ccc(I)cc2s1 .
[out] 100

---

Tested on: Klebsiella pneumoniae
test_description: Antibacterial activity against Klebsiella pneumoniae MTCC 109 assessed as growth inhibition by agar streak dilution method
Type: functional
The following compounds are listed with their measured MIC values.
Just the number please, in µg/mL, no unit attached.

The cases that follow already have their MIC on record.
>  <smiles_data>
O=C(CSc1nnc(-c2cc3ccccc3oc2=O)o1)Nc1ccc([N+](=O)[O-])cc1

>  <MIC, µg/mL>
100

$$$$
>  <smiles_data>
O=C(CSc1nnc(-c2cc3ccccc3oc2=O)o1)Nc1nc2ccc(I)cc2s1

>  <MIC, µg/mL>
100

$$$$
>  <smiles_data>
COc1ccc2nc(NC(=O)CSc3nnc(-c4cc5ccccc5oc4=O)o3)sc2c1

>  <MIC, µg/mL>
100

$$$$
>  <smiles_data>
N#Cc1ccc2nc(NC(=O)CSc3nnc(-c4cc5ccccc5oc4=O)o3)sc2c1

>  <MIC, µg/mL>
25

$$$$
>  <smiles_data>
O=C(CSc1nnc(-c2cc3ccccc3oc2=O)o1)Nc1nc2ccc(F)cc2s1

>  <MIC, µg/mL>
100

$$$$
>  <smiles_data>
CC(=O)Nc1ccc2nc(NC(=O)CSc3nnc(-c4cc5ccccc5oc4=O)o3)sc2c1

>  <MIC, µg/mL>
100

$$$$
>  <smiles_data>
N#Cc1ccc(NC(=O)CSc2nnc(-c3cc4ccccc4oc3=O)o2)cc1

>  <MIC, µg/mL>
50

$$$$
>  <smiles_data>
O=C(CSc1nnc(-c2cc3ccccc3oc2=O)o1)Nc1ccc(Cl)cc1

>  <MIC, µg/mL>
100

$$$$

[in] Return value of MIC for input CCOc1ccc2nc(NC(=O)CSc3nnc(-c4cc5ccccc5oc4=O)o3)sc2c1 , no commentary.
[out] 100

[in] Give the reported MIC for this compound. O=C(CSc1nnc(-c2cc3ccccc3oc2=O)o1)Nc1ccc(Br)cc1
[out] 100

[in] For the compound O=C(CSc1nnc(-c2cc3ccccc3oc2=O)o1)Nc1nc2ccc(Cl)cc2s1 , give its measured MIC value.
[out] 100

---

Test system: Candida albicans
test_description: Antifungal activity against Candida albicans MTCC 183 assessed as growth inhibition by agar streak dilution method
Type: functional
property_name: MIC

Here's what some known entries look like.
>  <smiles_data>
O=C(CSc1nnc(-c2cc3ccccc3oc2=O)o1)Nc1nc2ccccc2s1

>  <system_tested>
Candida albicans

>  <MIC>
> 100 µg/mL

$$$$
>  <smiles_data>
Cc1ccc(NC(=O)CSc2nnc(-c3cc4ccccc4oc3=O)o2)cc1

>  <system_tested>
Candida albicans

>  <MIC>
> 100 µg/mL

$$$$

[in] Look up and state reported MIC for CC(=O)Nc1ccc2nc(NC(=O)CSc3nnc(-c4cc5ccccc5oc4=O)o3)sc2c1
[out] > 100 µg/mL

---

Test system: Klebsiella pneumoniae
test_description: Antibacterial activity against Klebsiella pneumoniae MTCC 109 assessed as growth inhibition by agar streak dilution method
Format: functional
property_name: MIC

Answered cases to consult:
>  <smiles_data>
O=C(CSc1nnc(-c2cc3ccccc3oc2=O)o1)Nc1ccccc1

>  <system_tested>
Klebsiella pneumoniae

>  <experimental_value>
> 100 µg/mL

$$$$
>  <smiles_data>
Cc1ccc(NC(=O)CSc2nnc(-c3cc4ccccc4oc3=O)o2)cc1

>  <system_tested>
Klebsiella pneumoniae

>  <experimental_value>
> 100 µg/mL

$$$$
>  <smiles_data>
CC(=O)Nc1ccc(NC(=O)CSc2nnc(-c3cc4ccccc4oc3=O)o2)cc1

>  <system_tested>
Klebsiella pneumoniae

>  <experimental_value>
> 100 µg/mL

$$$$

Continue with the molecule presented below.
[in] Query MIC for O=C(CSc1nnc(-c2cc3ccccc3oc2=O)o1)Nc1nc2ccccc2s1
[out] > 100 µg/mL
